// data source = patent US8188135B2

Assay: pharmacokinetic studies in rats
Settings: male, Sprague-Dawley, rat, in vivo, iv, 3 micromole/kg
Assay readout: clearance

Please review the entries below; each comes with its answer.
>  <Compound>
Cn1c(C(C)(C)C)c/c(=N\C(=O)c2cc(C(F)(F)F)ccc2OCCC(C)(C)O)n1C[C@H]1CCCO1

>  <clearance>
13.3 mL/min/kg

$$$$
>  <Compound>
CCCCn1/c(=N/C(=O)c2cc(C(F)(F)F)ccc2OCC(C)(C)O)cc(C(C)(C)C)n1C

>  <clearance>
3.33 mL/min/kg

$$$$
>  <Compound>
CCCCn1/c(=N/C(=O)c2cc(Cl)ccc2OC)cc(C(C)(C)C)n1C [B, reference compound]

>  <clearance>
40 mL/min/kg

$$$$
>  <Compound>
CCCCn1/c(=N/C(=O)c2cc(C(F)(F)F)ccc2OC)cc(C(C)(C)C)n1C [E, reference compound]

>  <clearance>
33.3 mL/min/kg

$$$$
>  <Compound>
Cn1c(C(C)(C)C)c/c(=N\C(=O)c2cc(C(F)(F)F)ccc2OCCC(C)(C)O)n1CC1CC1

>  <clearance>
8.33 mL/min/kg

$$$$
>  <Compound>
Cn1c(C(C)(C)C)c/c(=N\C(=O)c2cc(Cl)ccc2OCC(C)(C)O)n1C[C@H]1CCCO1

>  <clearance>
16.7 mL/min/kg

$$$$
>  <Compound>
Cn1c(C2(C)CC2)c/c(=N\C(=O)c2cc(C(F)(F)F)ccc2OCCC(C)(C)O)n1C[C@H]1CCCO1

>  <clearance>
40 mL/min/kg

$$$$
>  <Compound>
Cn1c(C(C)(C)C)c/c(=N\C(=O)c2cccc(C(F)(F)F)c2F)n1CC1CC1 [A, reference compound]

>  <clearance>
10 mL/min/kg

$$$$

Prompt: Which clearance value is on record for CCCCn1/c(=N/C(=O)c2cc(C(F)(F)F)ccc2OCC(C)(C)OC)cc(C(C)(C)C)n1C [G, reference compound] ?
Response: 45 mL/min/kg

Prompt: Which clearance value is on record for COc1ccc(C(F)(F)F)cc1C(=O)/N=c1\cc(C(C)(C)C)n(C)n1CC1CC1 [F, reference compound] ?
Response: 63.3 mL/min/kg

Prompt: Which clearance value is on record for "Cn1c(C(C)(C)C)c/c(=N\C(=O)c2cc(C(F)(F)F)ccc2OCC(C)(C)O)n1C[C@H]1CCCO1" ?
Response: 18.3 mL/min/kg

Prompt: Which clearance value is on record for "Cn1c(C(C)(C)C)c/c(=N\C(=O)c2cc(C#N)ccc2OCC(C)(C)O)n1C[C@H]1CCCO1" ?
Response: 41.7 mL/min/kg

----------
Molecular target: rat CB2 (Rattus norvegicus)
Sequence (Q9QZN9 whole entry): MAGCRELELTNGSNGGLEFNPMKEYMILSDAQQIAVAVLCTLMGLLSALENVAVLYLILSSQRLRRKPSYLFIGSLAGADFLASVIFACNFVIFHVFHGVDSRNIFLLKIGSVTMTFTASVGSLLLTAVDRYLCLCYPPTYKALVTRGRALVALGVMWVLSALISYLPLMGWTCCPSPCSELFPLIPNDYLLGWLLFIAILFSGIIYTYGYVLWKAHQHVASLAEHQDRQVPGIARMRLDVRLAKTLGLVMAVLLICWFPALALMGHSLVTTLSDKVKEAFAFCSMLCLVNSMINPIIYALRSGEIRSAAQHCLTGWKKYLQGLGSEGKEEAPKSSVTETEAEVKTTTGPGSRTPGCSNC
Experiment: rat CB2 radioligand binding assay ([3H]CP 55,940 competition)
Parameters: expressed in transfected cells; host or cells: HEK293
Conditions: rat CB2 (Ki, nM), HEK293 membranes, 0.5 nM [3H]CP 55,940
Form field: Ki (one value per entry).
Answer with the figure and its unit, nothing else.

Please review the entries below; each comes with its answer.
>  <Molecule>
Cn1c(C(C)(C)C)c/c(=N\C(=O)c2cc(Br)ccc2OCC(C)(C)O)n1C[C@H]1CCCO1 [Example 128]

>  <Tested on>
rat CB2 (Rattus norvegicus)

>  <Ki>
4.9 nM

$$$$
>  <Molecule>
Cn1c(C(C)(C)C)c/c(=N\C(=O)c2cc(C(F)(F)F)ccc2OCC(C)(C)O)n1CC1CC1 [Example 71]

>  <Tested on>
rat CB2 (Rattus norvegicus)

>  <Ki>
8.5 nM

$$$$
>  <Molecule>
Cn1c(C(C)(C)C)c/c(=N\C(=O)c2cc(C(F)(F)F)ccc2OC[C@@H]2COC(C)(C)O2)n1C[C@H]1CCCO1 [Example 16]

>  <Tested on>
rat CB2 (Rattus norvegicus)

>  <Ki>
23 nM

$$$$
>  <Molecule>
CSCCCOc1ccc(C(F)(F)F)cc1C(=O)/N=c1\cc(C(C)(C)C)n(C)n1C[C@H]1CCCO1 [Example 58]

>  <Tested on>
rat CB2 (Rattus norvegicus)

>  <Ki>
5.1 nM

$$$$

Prompt: Which Ki value is on record for CC1CCC(COc2ccc(C(F)(F)F)cc2C(=O)N=c2cc(C(C)(C)C)n(C)n2CC2CCCO2)O1 (single isomer, unassigned) [Example 36] ?
Response: 108 nM

Prompt: Which Ki value is on record for CCS(=O)(=O)NCCOc1ccc(C(F)(F)F)cc1C(=O)/N=c1\cc(C(C)(C)C)n(C)n1C[C@H]1CCCO1 [Example 50] ?
Response: 8.5 nM

Prompt: Which Ki value is on record for CN1CCC[C@H]1COc1ccc(C(F)(F)F)cc1C(=O)/N=C1\SC(C)(C)CN1C[C@H]1CCCO1 [Example 33] ?
Response: 20 nM
